From: ChEMBL document CHEMBL1201862

system: OVCAR-5; experiment: NCI tumour cell line growth inhibition, 48 h
Calls of active or inactive are those of the source. Rule as the data show it: active = GI50 up to about 1.1 µM and inactive = higher.
Metric: GI50

CCCCC(N)CSSCC(N)CCCC (centres undefined) ... 20.5 µM (inactive)
Cc1c(C(=O)/C=C/c2ccc([N+](=O)[O-])cc2)[n+]([O-])c2ccccc2[n+]1[O-] ... > 100 µM (inactive)
COc1cc(O)c2c(=O)cc(C3(OC(C)=O)C=CC(OC4OC(CO)C(O)C(O)C4O)C=C3)oc2c1 (centres undefined) ... > 100 µM (inactive)
Clc1sc(Cl)c2c1[C@@H](Cl)C[C@@H]2Cl ... > 100 µM (inactive)
Nc1ccnc2c1ncn2[C@H]1C[C@H](O)[C@@H](CO)O1 ... > 100 µM (inactive)
CC(C)(C)C(=O)OCC1OC(N=[N+]=[N-])C(OC(=O)C(C)(C)C)C(OC(=O)C(C)(C)C)C1OC(=O)C(C)(C)C (centres undefined) ... > 100 µM (inactive)
COc1ccc(CC2C3=C(CCN2C(=O)C2CCC2)CC2(CC3)OCCO2)cc1O (centres undefined) ... > 100 µM (inactive)
CCCCCCCCC(=O)NCCN(CCN)C(=O)CCCCCCCC ... 15.8 µM (inactive)
CCCn1cc2c3c(cccc31)C1C=C(C)CN(C)C1C2 (centres undefined) ... 25.2 µM (inactive)
Brc1ccc2c(c1)-c1nc3nc4c(cc3cc1CC2)CCc1ccc(Br)cc1-4 ... > 100 µM (inactive)
O=C(O)CCC1(Br)CCCCC(Br)C1=O (centres undefined) ... > 100 µM (inactive)
CC(=O)OC(CN1CCN(c2ccccn2)CC1)Cn1sc2nc(C)cc(C)c2c1=O (centres undefined) ... 17.5 µM (inactive)
CCC1(O)CC(OC2CC(N(C)C)C(OC3CC(O)C(OC4CCC(=O)C(C)O4)C(C)O3)C(C)O2)c2c(O)c3c(c(O)c2C1C(=O)OC)C(=O)c1cccc(O)c1C3=O (centres undefined) ... 0.00575 µM (active)
O=C(OCCOCBr)c1ccccc1 ... > 100 µM (inactive)
COc1ccc(CC2CCc3nc(N)nc(N)c3C2)cc1OC (centres undefined) ... 1.51 µM (inactive)
CCCCCCCCCCCCCCCCCCNc1ccn(C2OC(COP(=O)(O)OCC3OC(n4cc(F)c(=O)[nH]c4=O)CC3O)C(O)C2O)c(=O)n1 (centres undefined) ... 15 µM (inactive)
NC(=O)NC(=O)c1cccc(NC(=O)CF)c1 ... > 100 µM (inactive)
CC[C@@]1(O)C(=O)OCc2c1cc1n(c2=O)Cc2cc3cc4c(cc3nc2-1)OCO4 ... 0.0111 µM (active)
CC(=O)N1N=C(c2ccc3ccccc3c2O)CC1c1ccc(Cl)cc1Cl (centres undefined) ... > 100 µM (inactive)
Cc1ccc2nc(NC(=O)/C(=N\NC(=S)NN)C3C(=O)NC(=S)NC3=O)sc2c1 ... > 100 µM (inactive)
OC1CC(O)c2c(Cl)sc(Cl)c21 (centres undefined) ... 28.8 µM (inactive)
C=COCCCOc1ccccc1 ... > 100 µM (inactive)
CC1(C)N=c2[nH]cnc2=C(C(N)=O)N1 ... > 100 µM (inactive)
C=C1C(=O)O[C@@H]2[C@H]3O[C@]3(C)CCC=C(C)CC[C@@H]12 ... 34.2 µM (inactive)
NC(=O)NNCc1ccccc1 ... > 100 µM (inactive)
CC(=O)c1ccccc1NC(=O)C(=O)C(C(=O)c1ccc2ccccc2c1)C1OC(=O)c2ccccc21 (centres undefined) ... 22.2 µM (inactive)
C1=C\SS/C=C\SS/C=C\SS/C=C\SS/1 ... > 100 µM (inactive)
COC(=O)Cc1c([C@@H]2Nc3ccccc3[C@H]2CC(=O)OC)[nH]c2ccccc12 ... 27.8 µM (inactive)
O=C(O)c1cc(CCc2ccc(O)c(O)c2)ccc1O ... > 100 µM (inactive)
C/C(CC(=O)Nc1ccc(Cl)cc1)=N\NC(N)=S ... > 100 µM (inactive)
O=S(=O)(O)c1ccc(/N=N/c2ccc3c(S(=O)(=O)O)cccc3c2O)c2ccccc12 ... > 100 µM (inactive)
CCCCNC1=C2C(=O)NN=C2CO1 ... > 100 µM (inactive)
Nc1nc(Nc2cc(F)c(Cl)c(F)c2)cc(=O)[nH]1 ... > 100 µM (inactive)
CCOC(=O)c1cc(=O)oc2c1N(C)c1ncccc1N2 ... > 100 µM (inactive)
NC1CCCCC1.O=P(O)(O)C(O)/C=C/c1ccccc1 (centres undefined) ... > 100 µM (inactive)
C/C(=C\c1ccc2c(c1)OCO2)[N+](=O)[O-] ... 3.96 µM (inactive)
CC(C)(C)C(=O)Nc1cccc(-c2ccc[nH]2)n1 ... > 100 µM (inactive)
CCOc1c(/N=N/c2ccccc2Cl)c(-c2ccccc2)nn1C(=S)S ... 61 µM (inactive)
COP(=O)(C(/C=C/c1ccccc1)OC(C)=O)[C@@H]1CCCC[C@H]1N(CC(C)(C)C)C(C)=O (some centres undefined) ... 19.2 µM (inactive)
Cc1c2ccnc(C(=O)NCCN(C)C)c2cc2c3cc(O)ccc3n(C)c12 ... 0.76 µM (active)
NCCOc1ccccn1 ... > 100 µM (inactive)
Cc1ncc([N+](=O)[O-])n1CCN(C)C(=O)CCCn1ccnc1[N+](=O)[O-] ... > 100 µM (inactive)
O=C(NCCN1CCCCC1)c1ccc(Br)cc1 ... > 100 µM (inactive)
O=C1OC([C@H](O)c2cccnc2)c2ccccc21 (some centres undefined) ... > 10 µM (inactive)
